- Target Of Assay: human ETB receptor (Homo sapiens, UniProt P24530)
- Construct: expressed in transfected cells; host or cells: COS7 cells
- Assay Method Text: Endothelin binding inhibition, Binding Test #2: competition with 125I-ET-1 for ETB receptors on transfected COS7 cell membranes
- Conditions Used: read-out: ETB % inhibition @ 100 μM, @ 100 μM; incubation at 24° C.
Measurement Kind: inhibition at 100 µM (%)

>  <Item Smiles>
COc1ccccc1OC(=O)c1sccc1S(=O)(=O)Nc1onc(C)c1Br

>  <Target Of Assay>
human ETB receptor (Homo sapiens, UniProt P24530)

>  <inhibition at 100 µM, %>
29

$$$$
>  <Item Smiles>
Cc1ccc(OC(=O)c2sccc2S(=O)(=O)Nc2onc(C)c2C)c(C)c1

>  <Target Of Assay>
human ETB receptor (Homo sapiens, UniProt P24530)

>  <inhibition at 100 µM, %>
21

$$$$

A. Cc1noc(NS(=O)(=O)c2ccsc2C(=O)Oc2ccccc2)c1Br
B. Cc1ccccc1-c1ccsc1S(=O)(=O)Nc1onc(C)c1Br
Would you let me know which has the greater inhibition at 100 µM value, A or B ? Identify your selection by its label.
B

---

- Target Of Assay: human ETB receptor (Homo sapiens)
- Construct: expressed in transfected cells; host or cells: COS7 cells
- Sequence (P24530 27-442): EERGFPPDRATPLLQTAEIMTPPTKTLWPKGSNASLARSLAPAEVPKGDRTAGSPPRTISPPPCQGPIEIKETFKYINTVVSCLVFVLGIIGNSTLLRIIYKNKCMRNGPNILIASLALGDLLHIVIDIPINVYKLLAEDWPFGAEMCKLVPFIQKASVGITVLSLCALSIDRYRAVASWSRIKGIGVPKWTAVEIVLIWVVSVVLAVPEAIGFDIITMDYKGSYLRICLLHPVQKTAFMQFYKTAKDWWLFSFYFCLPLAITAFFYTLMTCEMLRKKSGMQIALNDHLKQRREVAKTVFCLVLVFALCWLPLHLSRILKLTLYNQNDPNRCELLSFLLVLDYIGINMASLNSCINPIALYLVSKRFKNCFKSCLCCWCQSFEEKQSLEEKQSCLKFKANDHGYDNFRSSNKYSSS
- Assay Method Text: Endothelin binding inhibition, Binding Test #2: competition with 125I-ET-1 for ETB receptors on transfected COS7 cell membranes
- Conditions Used: incubation at 24° C. (values marked †)
Measurement Kind: IC50 (µM)

Below, 5 compounds whose answers are already recorded.
>  <Item Smiles>
Cc1noc(NS(=O)(=O)c2c(-c3ccccc3C#N)sc3ccccc23)c1Cl

>  <IC50 [µM]>
8.82

$$$$
>  <Item Smiles>
Cc1cc(C)c(CCc2ccsc2S(=O)(=O)Nc2onc(C)c2Br)c(C)c1

>  <IC50 [µM]>
1.62

$$$$
>  <Item Smiles>
Cc1noc(NS(=O)(=O)c2sccc2CC=Cc2cc3c(cc2CO)OCO3)c1Br

>  <IC50 [µM]>
3.24

$$$$
>  <Item Smiles>
Cc1noc(NS(=O)(=O)c2ccsc2C(=O)Nc2ccccc2O)c1Br

>  <IC50 [µM]>
38

$$$$
>  <Item Smiles>
Cc1noc(NS(=O)(=O)c2sccc2Cc2ccccc2)c1Br

>  <IC50 [µM]>
39

$$$$

P. COc1cc(Cc2sc3ccccc3c2S(=O)(=O)Nc2onc(C)c2Br)cc(OC)c1OC
Q. Cc1noc(NS(=O)(=O)c2sccc2-c2ccc(CCC(C)C)cc2)c1Br
Which of the two items, P and Q , has the greater recorded IC50? // caller expects the label of the chosen entry
Q
